Field: relative viability. Provide a value for each of the compounds that follow.
# Tested on: NCI-H1993
# method summary: relative viability (nuclei count vs DMSO), 5 days (fraction); higher = more cells survive
# setup conditions: first compound 4 µM
One number for each entry.

COc1cc(N2CCC(C(N)=O)CC2)ccc1Nc1nc(N)c(Cl)c(Nc2ccccc2S(=O)(=O)C(C)C)n1 [HG-5-88-01] + CCNC(=O)c1noc(-c2cc(C(C)C)c(O)cc2O)c1-c1ccc(CN2CCOCC2)cc1 [Luminespib] (partner 0.01 µM)    0.578
Clc1ccc(Nc2nnc(Cc3ccncc3)c3ccccc23)cc1 [Vatalanib] + CC(C)C[C@H](NC(=O)[C@H](Cc1ccccc1)NC(=O)c1cnccn1)B(O)O [Bortezomib] (partner 0.002 µM)    0.869
COc1cc(N2CCC(C(N)=O)CC2)ccc1Nc1nc(N)c(Cl)c(Nc2ccccc2S(=O)(=O)C(C)C)n1 [HG-5-88-01] + Cc1nc(Nc2ncc(C(=O)Nc3c(C)cccc3Cl)s2)cc(N2CCN(CCO)CC2)n1 [Dasatinib] (partner 0.075 µM)    0.581
COc1cc(N2CCC(C(N)=O)CC2)ccc1Nc1nc(N)c(Cl)c(Nc2ccccc2S(=O)(=O)C(C)C)n1 [HG-5-88-01] + Cc1cc(Nc2cc(N3CCN(C)CC3)nc(Sc3ccc(NC(=O)C4CC4)cc3)n2)n[nH]1 [Tozasertib] (partner 0.1 µM)    0.535
Clc1ccc(Nc2nnc(Cc3ccncc3)c3ccccc23)cc1 [Vatalanib] + Cc1nc(Nc2ncc(C(=O)Nc3c(C)cccc3Cl)s2)cc(N2CCN(CCO)CC2)n1 [Dasatinib] (partner 0.075 µM)    0.578

For every listed record, write down its relative viability.
1. COc1cc(N2CCC(C(N)=O)CC2)ccc1Nc1nc(N)c(Cl)c(Nc2ccccc2S(=O)(=O)C(C)C)n1 [HG-5-88-01] + CC(C)C[C@H](NC(=O)[C@H](Cc1ccccc1)NC(=O)c1cnccn1)B(O)O [Bortezomib] (partner 0.002 µM)
2. C[C@@H]1CN(CC(=O)Nc2ccc3c(c2)Cc2cccc(-c4cc(=O)cc(N5CCOCC5)o4)c2S3)C[C@H](C)O1 + CC(=O)c1c(C)c2cnc(Nc3ccc(N4CCNCC4)cn3)nc2n(C2CCCC2)c1=O [Palbociclib] (partner 0.5 µM)
3. COc1cc(N2CCC(C(N)=O)CC2)ccc1Nc1nc(N)c(Cl)c(Nc2ccccc2S(=O)(=O)C(C)C)n1 [HG-5-88-01] + CC(=O)Nc1cccc(-n2c(=O)n(C3CC3)c(=O)c3c(Nc4ccc(I)cc4F)n(C)c(=O)c(C)c32)c1 [Trametinib] (partner 0.02 µM)

## Result
1.02
0.662
0.45

----------
# System: UMC-11
# method summary: relative viability (nuclei count vs DMSO), 5 days (fraction); higher = more cells survive
# setup conditions: first compound 0.03162 µM
Field: relative viability. Provide a value for each of the compounds that follow.
One number for each entry.

Before answering, review these 2 worked examples.
CC(C)Oc1cc(Nc2nc(N[C@@H](C)c3ccc(F)cn3)ncc2Cl)n[nH]1 [AZ23] + CS(=O)(=O)CCNCc1ccc(-c2ccc3ncnc(Nc4ccc(OCc5cccc(F)c5)c(Cl)c4)c3c2)o1 [Lapatinib] (partner 2 µM)    0.994
CC(C)Oc1cc(Nc2nc(N[C@@H](C)c3ccc(F)cn3)ncc2Cl)n[nH]1 [AZ23] + CC(=O)Nc1cccc(-n2c(=O)n(C3CC3)c(=O)c3c(Nc4ccc(I)cc4F)n(C)c(=O)c(C)c32)c1 [Trametinib] (partner 0.02 µM)    0.872

Consider the record given below.
## Task Identify measured relative viability corresponding to CC(C)Oc1cc(Nc2nc(N[C@@H](C)c3ccc(F)cn3)ncc2Cl)n[nH]1 [AZ23] + O=C(CCCCCCC(=O)Nc1ccccc1)NO [Vorinostat] (partner 1 µM)
## Result 0.384

----------
Field: relative viability. Provide a value for each of the compounds that follow.
# Test system: NCI-H1650
# method summary: relative viability (nuclei count vs DMSO), 5 days (fraction); higher = more cells survive
# setup conditions: first compound 0.03162 µM
Numbers only.

Before answering, review these 5 worked examples.
CC(C)Oc1cc(Nc2nc(N[C@@H](C)c3ccc(F)cn3)ncc2Cl)n[nH]1 [AZ23] + CC(=O)c1c(C)c2cnc(Nc3ccc(N4CCNCC4)cn3)nc2n(C2CCCC2)c1=O [Palbociclib] (partner 0.5 µM)    0.439
CC(C)Oc1cc(Nc2nc(N[C@@H](C)c3ccc(F)cn3)ncc2Cl)n[nH]1 [AZ23] + O=C(c1cc(Cc2n[nH]c(=O)c3ccccc23)ccc1F)N1CCN(C(=O)C2CC2)CC1 [Olaparib] (partner 8 µM)    0.97
CC(C)Oc1cc(Nc2nc(N[C@@H](C)c3ccc(F)cn3)ncc2Cl)n[nH]1 [AZ23] + COc1cccc2cc(-c3nc([C@H]4CC[C@H](C(=O)O)CC4)n4ncnc(N)c34)[nH]c12 [OSI-027] (partner 0.5 µM)    0.689
CC(C)Oc1cc(Nc2nc(N[C@@H](C)c3ccc(F)cn3)ncc2Cl)n[nH]1 [AZ23] + O=C(CCCCCCC(=O)Nc1ccccc1)NO [Vorinostat] (partner 1 µM)    1.16
CC(C)Oc1cc(Nc2nc(N[C@@H](C)c3ccc(F)cn3)ncc2Cl)n[nH]1 [AZ23] + CC(=O)Nc1cccc(-n2c(=O)n(C3CC3)c(=O)c3c(Nc4ccc(I)cc4F)n(C)c(=O)c(C)c32)c1 [Trametinib] (partner 0.02 µM)    0.589

## Task Identify measured relative viability corresponding to CC(C)Oc1cc(Nc2nc(N[C@@H](C)c3ccc(F)cn3)ncc2Cl)n[nH]1 [AZ23] + CC(C)C[C@H](NC(=O)[C@H](Cc1ccccc1)NC(=O)c1cnccn1)B(O)O [Bortezomib] (partner 0.002 µM)
## Result 0.242

----------
# Tested on: ChaGo-K-1
# method summary: relative viability (nuclei count vs DMSO), 5 days (fraction); higher = more cells survive
# setup conditions: first compound 0.03162 µM
Field: relative viability. Provide a value for each of the compounds that follow.
One number for each entry.

Before answering, review these 3 worked examples.
CC(C)Oc1cc(Nc2nc(N[C@@H](C)c3ccc(F)cn3)ncc2Cl)n[nH]1 [AZ23] + Cc1cc(Nc2cc(N3CCN(C)CC3)nc(Sc3ccc(NC(=O)C4CC4)cc3)n2)n[nH]1 [Tozasertib] (partner 0.1 µM)    0.234
CC(C)Oc1cc(Nc2nc(N[C@@H](C)c3ccc(F)cn3)ncc2Cl)n[nH]1 [AZ23] + CC1(C)CCC(c2ccc(Cl)cc2)=C(CN2CCN(c3ccc(C(=O)NS(=O)(=O)c4ccc(N[C@H](CCN5CCOCC5)CSc5ccccc5)c(S(=O)(=O)C(F)(F)F)c4)cc3)CC2)C1 [Navitoclax] (partner 0.5 µM)    1.23
CC(C)Oc1cc(Nc2nc(N[C@@H](C)c3ccc(F)cn3)ncc2Cl)n[nH]1 [AZ23] + CS(=O)(=O)N1CCN(Cc2cc3nc(-c4cccc5[nH]ncc45)nc(N4CCOCC4)c3s2)CC1 [Pictilisib] (partner 1 µM)    1.18

Consider the record given below.
## Task Identify measured relative viability corresponding to CC(C)Oc1cc(Nc2nc(N[C@@H](C)c3ccc(F)cn3)ncc2Cl)n[nH]1 [AZ23] + O=C(CCCCCCC(=O)Nc1ccccc1)NO [Vorinostat] (partner 1 µM)
## Result 0.798

----------
# Test system: H3255
# method summary: relative viability (nuclei count vs DMSO), 5 days (fraction); higher = more cells survive
# setup conditions: first compound 0.01 µM
Field: relative viability. Provide a value for each of the molecules that follow.
Answers are plain numbers.

CC(C)Oc1cc(Nc2nc(N[C@@H](C)c3ccc(F)cn3)ncc2Cl)n[nH]1 [AZ23] + Cc1cc(Nc2cc(N3CCN(C)CC3)nc(Sc3ccc(NC(=O)C4CC4)cc3)n2)n[nH]1 [Tozasertib] (partner 0.1 µM)    0.662

For every listed record, write down its relative viability.
1. CC(C)Oc1cc(Nc2nc(N[C@@H](C)c3ccc(F)cn3)ncc2Cl)n[nH]1 [AZ23] + NC(=O)Nc1cc(-c2cccc(F)c2)sc1C(=O)N[C@H]1CCCNC1 [AZD7762] (partner 0.2 µM)
2. CC(C)Oc1cc(Nc2nc(N[C@@H](C)c3ccc(F)cn3)ncc2Cl)n[nH]1 [AZ23] + COc1cccc2cc(-c3nc([C@H]4CC[C@H](C(=O)O)CC4)n4ncnc(N)c34)[nH]c12 [OSI-027] (partner 0.5 µM)
3. CC(C)Oc1cc(Nc2nc(N[C@@H](C)c3ccc(F)cn3)ncc2Cl)n[nH]1 [AZ23] + CC1(C)CCC(c2ccc(Cl)cc2)=C(CN2CCN(c3ccc(C(=O)NS(=O)(=O)c4ccc(N[C@H](CCN5CCOCC5)CSc5ccccc5)c(S(=O)(=O)C(F)(F)F)c4)cc3)CC2)C1 [Navitoclax] (partner 0.5 µM)

## Result
1: 0.828; 2: 0.55; 3: 0.514

Provenance of the data: the supplement of paper PMC10307832
